Just for reference, ChEMBL document CHEMBL3988442 is where these values come from.

- tested_on: Sialic acid-binding Ig-like lectin 9 (Homo sapiens) (UniProt Q9Y336)
- Sequence (Q9Y336 whole entry): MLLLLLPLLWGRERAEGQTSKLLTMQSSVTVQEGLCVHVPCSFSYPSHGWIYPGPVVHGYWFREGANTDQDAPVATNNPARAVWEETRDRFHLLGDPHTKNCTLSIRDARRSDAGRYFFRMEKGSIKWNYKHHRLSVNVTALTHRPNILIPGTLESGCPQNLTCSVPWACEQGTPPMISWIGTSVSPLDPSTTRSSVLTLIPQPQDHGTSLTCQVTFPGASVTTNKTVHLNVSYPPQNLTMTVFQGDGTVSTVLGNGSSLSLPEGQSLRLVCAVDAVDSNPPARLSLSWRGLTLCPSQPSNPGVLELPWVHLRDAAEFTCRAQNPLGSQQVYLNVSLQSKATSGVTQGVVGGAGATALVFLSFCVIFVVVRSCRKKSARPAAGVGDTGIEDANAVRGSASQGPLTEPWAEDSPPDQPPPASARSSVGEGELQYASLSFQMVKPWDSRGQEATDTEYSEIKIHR
- method_notes: Hs-Siglec9 ALPHAscreen SOP 20170721
- Parameters: scale not given: direction of the effect not stated beside the values
- measurement_conditions: 10 µM
measure_name: Percent Effect (%)
Please reply with the bare figure in % and do not write the unit itself.

Completed entries (count: 3):
>>> endpoint_result("CN1CCN(Cc2ccoc2)Cc2cccnc21")
-3.94
>>> endpoint_result("NC[C@H]1[C@H]2CN(Cc3ccccc3)C[C@@H]12")
2.06
>>> endpoint_result("CC(Cn1cccn1)NCc1nc(-c2cccs2)no1 (configuration not stated)")
2.35

For reference, reported Percent Effect for CCN(CC)C(=O)c1ccc(NC(=O)CNc2ccc(Br)cc2F)cc1 stands at -6.58

The value of Percent Effect measured for the compound c1cnc(N2CCC3(COCCN(CC4CC4)C3)C2)nc1 (configuration not stated) turned out to be -2.75
